Measured abundance fitness accompanies every entry in the list below.
B1: POU domain, class 2, transcription factor 2, residues 200 to 269; numbered along this chain, P09086 (parent)
chain: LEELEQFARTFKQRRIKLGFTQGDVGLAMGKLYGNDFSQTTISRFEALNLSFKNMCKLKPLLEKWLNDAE

Variants of: B1
method description: abundance fitness (aPCA) (normalised: wild type 0, dead -1); higher = more abundant; growth selection in yeast, the domain comes from the species named
study conditions: Homo sapiens
Would you mind answering with just the numeric figure?

Example variants with recorded abundance fitness:
{"sequence variant": "S43V", "abundance fitness": -0.098}
{"sequence variant": "F45V", "abundance fitness": -0.371}
{"sequence variant": "Q39I", "abundance fitness": -0.017}
{"sequence variant": "V25I", "abundance fitness": -0.098}
{"sequence variant": "L4P", "abundance fitness": -0.367}

What the record says about L48F : abundance fitness is 0.056

What the record says about L4V : abundance fitness is -0.08

What the record says about Q22K : abundance fitness is -0.042

Measured values drawn from the Human Domainome abundance scans (Beltran et al. 2025) for this set.
